# test-protocol: Quantitative High-Throughput drug screen in 47 multiple myeloma cell lines against the NCATS MIPE library collection: AMO1_DSMZ cell viability assay (AID 1918927; further: nearly all actives have a fitted effect of over 30% in size)
# reported-conditions: AMO1 myeloma cells viability, CellTiter-Glo ATP luminescence, 48 h; series mostly up to 45.8 µM
Records with an inconclusive call do not appear. The source made the active and inactive calls. The call rests on the fitted dose curve; in most records, active means well fitted cell-killing curve with a large enough effect; inconclusive means small, poorly fitted or top-dose-only effect, or effect the other way; inactive means no such curve, though single readings can be large or run the other way.
Possible outcomes: True for active, False for inactive

{"compound": "CN(N=O)C(=O)N[C@H]1C(O)OC(CO)[C@@H](O)[C@H]1O (some centres undefined)", "assigned-class": "False"}
{"compound": "Nc1nc2c(c(=O)[nH]1)N(C=O)[C@H](CNc1ccc(C(=O)N[C@@H](CCC(=O)O)C(=O)O)cc1)CN2", "assigned-class": "False"}
{"compound": "CC(C)c1cc(C(C)C)c(CC(=O)NS(=O)(=O)Oc2c(C(C)C)cccc2C(C)C)c(C(C)C)c1", "assigned-class": "True"}
{"compound": "NC(=O)c1ncn([C@@H]2O[C@H](CO)[C@@H](O)[C@@H]2O)c1N", "assigned-class": "False"}
{"compound": "CN(CC(=O)N(Cc1ccc(C2CCCCC2)cc1)c1ccc(C(=O)O)c(O)c1)S(=O)(=O)c1c(F)c(F)c(F)c(F)c1F", "assigned-class": "True"}
{"compound": "NC(=O)c1ncn([C@@H]2O[C@H](CO)[C@@H](O)[C@@H]2O)c1O", "assigned-class": "False"}
{"compound": "CC(=O)O[C@]1(C(C)=O)CC[C@H]2[C@@H]3C=C(C)C4=CC(=O)CC[C@]4(C)[C@@H]3CC[C@@]21C", "assigned-class": "True"}
{"compound": "CC(C)c1cnn2c(NCc3ccccc3)cc(NCCCCCCN)nc12", "assigned-class": "True"}
{"compound": "Oc1cc(-c2nc(-c3ccccc3)[nH]c2-c2ccncc2)ccc1Cl", "assigned-class": "True"}
{"compound": "OCCNC1CCCc2c1[nH]c1ccc(-c3ccccc3)cc21 (centres undefined)", "assigned-class": "True"}
{"compound": "C=CCNC1=C2C[C@@H](C)C[C@H](OC)[C@@H](O)[C@@H](C)C=C(C)[C@H](OC(N)=O)[C@@H](OC)C=CC=C(C)C(=O)NC(=CC1=O)C2=O", "assigned-class": "True"}
{"compound": "O=C(CCCCCCC(=O)Nc1cccnc1)NO", "assigned-class": "True"}
{"compound": "C[N+](C)([O-])CCNc1ccc(NCC[N+](C)(C)[O-])c2c1C(=O)c1c(O)ccc(O)c1C2=O", "assigned-class": "False"}
{"compound": "CC(C)(O)Cn1c(NC(=O)c2ccc(-c3cn[nH]c3)s2)nc2cc(CN3CCOCC3)ccc21", "assigned-class": "True"}
{"compound": "CN(C)CC(=O)N1CCC(c2ccc(NC(=O)c3ncc(C#N)[nH]3)c(C3=CCCCC3)c2)CC1", "assigned-class": "True"}
{"compound": "CCN(CC)CCNC(=O)c1c(C)[nH]c(C=C2C(=O)Nc3ccc(F)cc32)c1C", "assigned-class": "True"}
{"compound": "COc1cc(C[C@@H](CO)[C@H](CO)Cc2ccc(O)c(OC)c2)ccc1O", "assigned-class": "True"}
{"compound": "Nc1ccn(C2CO[C@H](CO)O2)c(=O)n1 (some centres undefined)", "assigned-class": "False"}
{"compound": "Nc1nc(=O)n([C@H]2CSC(CO)O2)cc1F (some centres undefined)", "assigned-class": "False"}

###

# test-protocol: Quantitative High-Throughput drug screen in 47 multiple myeloma cell lines against the NCATS MIPE library collection: Karpas620_DSMZ cell viability assay (AID 1918959); further: nearly all actives have a fitted effect of over 30% in size
# reported-conditions: Karpas620 myeloma viability, CellTiter-Glo ATP luminescence, 48 h; series mostly up to 45.8 µM
Inconclusive results are not listed. Calls of active or inactive are those of the source. Calls follow the shape of the dose curve; as a rule, active = well fitted cell-killing curve with a large enough effect; inconclusive = small, poorly fitted or top-dose-only effect, or effect the other way; inactive = no such curve, though single readings can be large or run the other way. Positions of bridges follow the written chain, without caps; N, C: chain ends. Non-standard residues stand in square brackets, D forms with d. Residues, ends and D or L forms follow the SMILES beside them. ξ: configuration not given here. *: point of attachment. Octanoyl(6-Me) = CCC(C)CCCCC(=O)*; ξThr(3R) = C[C@@H](O)C(N)C(=O)O; dDab = NCC[C@@H](N)C(=O)O; Dab = NCC[C@H](N)C(=O)O
Possible outcomes: label 1 = active, label 0 = inactive

{"compound": "Cc1ccc([N+](=O)[O-])cc1S(=O)(=O)N(C)N=Cc1cnc2ccc(Br)cn12", "assigned-class": "label 1"}
{"compound": "O=C1NC(=O)[C@@H](c2cn3c4c(cccc24)CCC3)[C@H]1c1c[nH]c2ccccc12", "assigned-class": "label 1"}
{"compound": "CC1=C(C(=O)Nc2cc3cn[nH]c3cc2F)C(c2ccc(Cl)cc2F)N=C(c2ccnc(Cl)c2)N1 (stereo not given)", "assigned-class": "label 1"}
{"compound": "COc1ccnc2[nH]cc(C(=O)C(=O)N3CCN(C(=O)c4ccccc4)C[C@@H]3C)c12", "assigned-class": "label 0"}
{"compound": "CC[C@H]1OC(=O)[C@H](C)[C@@H](O[C@H]2C[C@@](C)(OC)[C@@H](O)[C@H](C)O2)[C@H](C)[C@@H](O[C@@H]2O[C@@H](C)C[C@H](N(C)C)[C@@H]2O)[C@](C)(O)C[C@@H](C)C(=O)[C@H](C)[C@@H](O)[C@]1(C)O", "assigned-class": "label 0"}
{"compound": "CC(=O)O[C@H]1C[C@@H]2CC[C@H]3[C@H]4C[C@H]([N+]5(C)CCCCC5)[C@@H](OC(C)=O)[C@@]4(C)CC[C@@H]3[C@@]2(C)C[C@H]1[N+]1(C)CCCCC1", "assigned-class": "label 0"}
{"compound": "CO[C@@H]1[C@@H](O)[C@H](O)[C@@H](n2c3c(Cl)cccc3c3c4c(c5c6cccc(Cl)c6[nH]c5c32)C(=O)NC4=O)O[C@@H]1CO", "assigned-class": "label 1"}
{"compound": "CCOC(=O)C=C[C@H](C[C@@H]1CCNC1=O)NC(=O)[C@@H](CC(=O)[C@@H](NC(=O)c1cc(C)on1)C(C)C)Cc1ccc(F)cc1", "assigned-class": "label 0"}
{"compound": "OCc1ccccc1O[C@@H]1O[C@H](CO)[C@H](O)[C@H](O)[C@H]1O", "assigned-class": "label 0"}
{"compound": "COc1cccc2c1C(=O)c1c(O)c3c(c(O)c1C2=O)C[C@@](O)(C(C)=O)C[C@H]3O[C@H]1C[C@H](N)[C@H](O)[C@H](C)O1", "assigned-class": "label 1"}
{"compound": "N#CNC(=NCCCCCCOc1ccc(Cl)cc1)Nc1ccncc1", "assigned-class": "label 1"}
{"compound": "CC(=O)OC[C@@H]1O[C@@H](n2ccc(=O)[nH]c2=O)[C@H](OC(C)=O)[C@H]1OC(C)=O", "assigned-class": "label 0"}
{"compound": "Cn1cc(C2=C(c3c4n(c5ccccc35)CCC(CN)C4)C(=O)NC2=O)c2ccccc21 (stereo not given)", "assigned-class": "label 1"}
{"compound": "O=S(=O)(O)CCSSCCS(=O)(=O)O", "assigned-class": "label 0"}
{"compound": "CCC(C)CCCCC(=O)N[C@@H](CCN)C(=O)NC(C(=O)N[C@H](CCN)C(=O)N[C@@H]1CCNC(=O)C([C@@H](C)O)NC(=O)[C@@H](CCN)NC(=O)[C@@H](CCN)NC(=O)[C@@H](CC(C)C)NC(=O)[C@H](Cc2ccccc2)NC(=O)[C@H](CCN)NC1=O)[C@@H](C)O (stereo partly drawn) ({Octanoyl(6-Me)}-[Dab][ξThr(3R)][dDab][dDab][Dab]F[dL][dDab][dDab][ξThr(3R)]; lactam 4-C)", "assigned-class": "label 0"}

###

# test-protocol: qHTS of pediatric cancer cell lines to identify multiple opportunities for drug repurposing: Primary screen for Saos-2 cells (AID 1347097); further: nearly all actives have a fitted effect of over 40% in size
# reported-conditions: Saos-2 viability, CellTiter-Glo ATP luminescence, 48 h; series mostly up to 46 µM
# Description: Drug repurposing or repositioning has been offered as a strategy for drug development in oncology programs. This approach has special potential for childhood cancers and other rare or orphan diseases, where the expected return on new drug development has been a disincentive to pharmaceuticals. […] We employed a titration-based paradigm (quantitative high-throughput screening or qHTS), where all compounds were tested at multiple concentrations for their effect on cell viability. […]
Records with an inconclusive call do not appear. Calls of active or inactive are those of the source. Calls follow the shape of the dose curve; as a rule, active = well fitted cell-killing curve with a large enough effect; inconclusive = small, poorly fitted or top-dose-only effect; inactive = no such curve, though single readings can be large or run the other way.
Possible outcomes: 1 = active, -1 = inactive

{"smiles-entry": "NC(=O)c1ncn([C@@H]2O[C@H](CO)[C@@H](O)[C@@H]2O)c1O", "assigned-class": -1}
{"smiles-entry": "COC(=O)[C@@H]1[C@H]2C[C@@H]3c4[nH]c5ccccc5c4CCN3C[C@@H]2CC[C@@H]1O", "assigned-class": -1}
{"smiles-entry": "CC(C)NC[C@@H](C(=O)N1CCN(c2ncnc3c2[C@H](C)C[C@H]3O)CC1)c1ccc(Cl)cc1", "assigned-class": 1}
{"smiles-entry": "CN(C)CC(=O)N1CCC(c2ccc(NC(=O)c3ncc(C#N)[nH]3)c(C3=CCCCC3)c2)CC1", "assigned-class": 1}
{"smiles-entry": "N=c1ccn2c(n1)O[C@H]1[C@@H](O)[C@@H](CO)O[C@H]12", "assigned-class": -1}
{"smiles-entry": "Cc1ncc(-c2ccnc(Nc3ccc(S(C)(=O)=O)cc3)n2)n1C(C)C", "assigned-class": 1}
{"smiles-entry": "O=C(Nc1cccc(Nc2ncc(Br)c(NCCc3cnc[nH]3)n2)c1)N1CCCC1", "assigned-class": 1}
{"smiles-entry": "NC(=O)Nc1sc(-c2ccc(F)cc2)cc1C(N)=O", "assigned-class": 1}
{"smiles-entry": "COC1=C(OC)C(=O)C(CC=C(C)CCC=C(C)CCC=C(C)CCC=C(C)CCC=C(C)CCC=C(C)CCC=C(C)CCC=C(C)CCC=C(C)CCC=C(C)C)=C(C)C1=O", "assigned-class": -1}
